Every entry's value here was drawn from ChEMBL document CHEMBL4007391.

- System: Candida albicans
- test.description: Antibiofilm activity against Candida albicans SC5314 after 24 hrs in presence of miconazole by Cell-Titer Blue assay
- Type: functional
Entries and their fractional inhibitory concentration index (FICI)
readout.type: fractional inhibitory concentration index (FICI)

molecule="C[C@@H]1CC[C@H]2[C@@H](C)C(=O)O[C@@H]3O[C@@]4(C)CC[C@@H]1[C@]32OO4 [ARTEMISININ]" result_modifier== data_value=0.186
molecule="C[C@H]1[C@H](OC(=O)CCC(=O)O)O[C@@H]2O[C@@]3(C)CC[C@H]4[C@H](C)CC[C@@H]1[C@@]24OO3 [ARTESUNATE]" result_modifier=< data_value=0.069
molecule="C[C@H]1[C@@H](O)O[C@@H]2O[C@@]3(C)CC[C@H]4[C@H](C)CC[C@@H]1[C@@]24OO3 [ARTENIMOL]" result_modifier== data_value=0.145
molecule=CO[C@H]1O[C@@H]2O[C@@]3(C)CC[C@H]4[C@H](C)CC[C@@H]([C@H]1C)[C@@]24OO3 result_modifier== data_value=0.112

----------
- Tested on: Candida albicans
- test.description: Antibiofilm activity against Candida albicans SC5314 clinical isolates after 24 hrs by XTT assay
- Assay type: functional
readout.type: IC50 (µM)

sequence_input=THIMEROSAL readout_type=IC50 units_of_measure=µM data_value=0.2

----------
Entries and their IC50
- Test system: Candida albicans
- test.description: Antibiofilm activity against Candida albicans CAF2-1 after 48 hrs by Alamar blue assay
- Format: functional
- condition.info: CAF2-1, 48 h
readout.type: IC50

compound="Cc1ccccc1OCc1n(CC(=O)OC2CC(C)CCC2C(C)C)c2ccccc2[n+]1C (stereo unspecified)" system_tested="Candida albicans" data_value="9.8 to 24.3 µM"
compound=CCN1/C(=C\c2ccc3ccccc3[n+]2CC)Sc2cc(C)ccc21 system_tested="Candida albicans" data_value="2.8 to 82.1 µM"
compound="O=[N+]([O-])c1ccc(O)c2ncccc12 [NITROXOLINE]" system_tested="Candida albicans" data_value="1 to 5.8 µM"
compound="Oc1c(Cl)cc(Cl)c2cccnc12 [CHLOROXINE]" system_tested="Candida albicans" data_value="1.2 to 13.2 µM"
compound=CCN1/C(=C/c2ccc3cc(C)ccc3[n+]2CC)Sc2cc(C)c(C)cc21 system_tested="Candida albicans" data_value="231 to 268 µM"
compound="CCC(CO)N1C(C)=CC(=Cc2sc3ccccc3[n+]2Cc2ccccc2)C=C1C (stereo unspecified)" system_tested="Candida albicans" data_value="1.7 to 119 µM"

----------
- test.description: Cytotoxicity against human HepG2 assessed as reduction in cell viability after 24 hrs by CellTiter-Glo luminescent assay
- Assay type: cell-based
- condition.info: HepG2 cells
1.0 if CC50 at 24 h is below 100 µM. 0.0 if not; exact matches included in 0.0.

compound="CC1OC(CC(=O)O)Cc2c(O)c3c(c(O)c21)C(=O)C=C(C1=CC(=O)c2c(O)c4c(c(O)c2C1=O)CC(CC(=O)O)OC4C)C3=O (centres undefined)" assigned_category=1.0
compound=CO[C@H]1C[C@@H]2CC[C@@H](C)[C@@](O)(O2)C(=O)C(=O)N2CCCC[C@H]2C(=O)O[C@H]([C@H](C)C[C@@H]2CC[C@@H](O)[C@H](OC)C2)CC(=O)[C@H](C)/C=C(\C)[C@@H](O)[C@@H](OC)C(=O)[C@H](C)C[C@H](C)/C=C/C=C/C=C/1C assigned_category=1.0
compound=CCN(CC)CCN1c2ccccc2Sc2ccc3ccccc3c21 assigned_category=1.0
compound=CC[C@H](C)[C@H](N)C1=N[C@H](C(=O)N[C@@H](CC(C)C)C(=O)N[C@H](CCC(=O)O)C(=O)N[C@@H](C(=O)N[C@@H]2CCCCNC(=O)[C@H](CC(N)=O)NC(=O)[C@@H](CC(=O)O)NC(=O)[C@H](Cc3cnc[nH]3)NC(=O)[C@@H](Cc3ccccc3)NC(=O)[C@H]([C@@H](C)CC)NC(=O)[C@@H](CCCN)NC2=O)[C@@H](C)CC)CS1 assigned_category=0.0
compound=Nc1cc(S(N)(=O)=O)ccc1SSc1ccc(S(N)(=O)=O)cc1N assigned_category=0.0
